Data origin: paper PMC9146896

target_desc: hCA IX (Homo sapiens, UniProt Q16790)
procedure_summary: Carbonic anhydrase inhibition, colorimetric method (BioVision CA Inhibitor Screening Kit)
condition_info: hCA IX over hCA II
endpoint: Selectivity index II/IX
The response must contain the number and no unit.

stdin: # return Selectivity index II/IX for Cn1c(N)c(/N=C/c2cc3ccccc3[nH]c2=O)c(=O)[nH]c1=S [Compound 10e] , test system: hCA IX (Homo sapiens, UniProt Q16790)
stdout: 0.88

stdin: Provide Selectivity index II/IX, system hCA IX (Homo sapiens, UniProt Q16790), entry Cn1c(N)c(/N=C/c2cc3ccccc3[nH]c2=O)c(=O)[nH]c1=O [Compound 10d]
stdout: 1.21

stdin: Give measured Selectivity index II/IX for COc1ccc2[nH]c(=O)c(/C=N/c3c(N)n(Cc4ccccc4)c(=O)[nH]c3=O)cc2c1 [Compound 10i] (hCA IX (Homo sapiens, UniProt Q16790)).
stdout: 1.17

stdin: Provide Selectivity index II/IX, system hCA IX (Homo sapiens, UniProt Q16790), entry COc1ccc2[nH]c(=O)c(/C=N/c3c(N)n(C)c(=S)[nH]c3=O)cc2c1 [Compound 10l]
stdout: 13.20
